B1: CPEB3 Ribozyme (parent)
chain: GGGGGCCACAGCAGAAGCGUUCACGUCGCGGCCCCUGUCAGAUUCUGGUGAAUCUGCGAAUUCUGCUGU

Variants of: B1
assay_remarks: self-cleavage, relative activity (ratio to wild type); higher = more cleavage; co-transcriptional
Entries are sorted into classes by self-cleavage as follows: bottom range: < 0.2; center range: ≥ 0.2 and < 0.5; top range: ≥ 0.5

Solved cases below.
macromolecule_sequence="CGAGGCCACAGCAGAAGCGUUCACGUCGCGGCCCCUGUCAGAUUCUGGUGAAUCUGCGAAUUCUGCUGU [G1C G3A]" assigned_label="bottom range"
macromolecule_sequence="GGGGGCCACAGCUGAAGCGUUCACGUCGCGGCCCCUGUCAGAUUCUGGCGAAUCUGCGAAUUCUGCUGU [A13U U49C]" assigned_label="top range"
macromolecule_sequence="GGGGGCCACAGCAGAGUCGUUCACGUCGCGGCCCCUGUCAGAUUCUGGUGAAUCUGCGAAUUCUGCUGU [A16G G17U]" assigned_label="top range"
macromolecule_sequence="GGGGGCCACAGCAGAAGCGUUCGCGUCGCGGCCCCUGUCAGAUUCUGGUGAAUCUGCGAAUUCUGCUGG [A23G U69G]" assigned_label="top range"

Determine which band this variant sits in: GGGGACCACAGCAGAGGCGUUCACGUCGCGGCCCCUGUCAGAUUCUGGUGAAUCUGCGAAUUCUGCUGU [G5A A16G] top range

Determine which band this variant sits in: GGGGGCCACAGCAGAAACGUUCACGUCGCGGCCCCUGUCAGAUUCUGGUGAAUCUGCGAAUUCUGGUGU [G17A C66G] center range

Determine which band this variant sits in: GGGGGCCACAGAAGAAGCGUUCGCGUCGCGGCCCCUGUCAGAUUCUGGUGAAUCUGCGAAUUCUGCUGU [C12A A23G] center range

Determine which band this variant sits in: GGGGGCCACAGCAGAAGCGUGCACGUCGCGGCCCCUGACAGAUUCUGGUGAAUCUGCGAAUUCUGCUGU [U21G U38A] bottom range

Determine which band this variant sits in: GGGUGCCACAGCAGAAGCGUUUACGUCGCGGCCCCUGUCAGAUUCUGGUGAAUCUGCGAAUUCUGCUGU [G4U C22U] bottom range

Measured values drawn from the RNAGym collection of RNA variant scans (doi:10.7554/elife.80360) for this set.
